Cited source: paper PMC12371494

Overview of reported LE (ligand efficiency, DF2) across a group of molecules:
TEST_SYSTEM: GST-YTHDF2 (Homo sapiens, UniProt Q9Y5A9)
Construct: made in house
Sequence (Q9Y5A9 1-579): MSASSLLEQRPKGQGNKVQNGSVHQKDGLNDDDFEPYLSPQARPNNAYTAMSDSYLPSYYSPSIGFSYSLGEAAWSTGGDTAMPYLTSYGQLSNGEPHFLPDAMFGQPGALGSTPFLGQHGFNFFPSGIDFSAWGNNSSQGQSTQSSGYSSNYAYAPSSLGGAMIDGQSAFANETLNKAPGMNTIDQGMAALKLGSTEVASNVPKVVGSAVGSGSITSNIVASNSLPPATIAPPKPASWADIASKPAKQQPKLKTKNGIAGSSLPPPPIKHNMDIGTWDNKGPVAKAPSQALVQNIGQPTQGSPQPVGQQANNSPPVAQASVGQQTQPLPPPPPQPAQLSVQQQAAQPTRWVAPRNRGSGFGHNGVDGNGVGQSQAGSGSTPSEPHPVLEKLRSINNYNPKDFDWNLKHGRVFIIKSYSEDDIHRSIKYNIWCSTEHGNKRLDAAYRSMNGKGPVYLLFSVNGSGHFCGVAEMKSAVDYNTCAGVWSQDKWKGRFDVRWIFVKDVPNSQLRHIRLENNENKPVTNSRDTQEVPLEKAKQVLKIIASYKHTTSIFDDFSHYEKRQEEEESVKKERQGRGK
PROCEDURE_SUMMARY: HTRF-based binding assay, competition with m6A-oligoRNA, DF2
STATED_CONDITIONS: LE = -RT ln IC50/HAC from HTRF IC50

| MOLECULE | TEST_SYSTEM | OBSERVED |
| --- | --- | --- |
| CCOC(=O)c1ccc(-c2cc3c(=O)[nH]c(=S)[nH]c3s2)cc1 [Compound 29] | GST-YTHDF2 (Homo sapiens, UniProt Q9Y5A9) | 0.29 kcal/(mol HAC) |
| O=C1NC(=S)NC(=O)C1=NNc1cccc(C(=O)O)c1 [Compound 8] | GST-YTHDF2 (Homo sapiens, UniProt Q9Y5A9) | 0.36 kcal/(mol HAC) |
| CC(=O)c1sc2[nH]c(=S)[nH]c(=O)c2c1C [Compound 20] | GST-YTHDF2 (Homo sapiens, UniProt Q9Y5A9) | 0.45 kcal/(mol HAC) |

Entry CC=CC=C1C(=O)NC(=S)NC1=O [Compound 1] ; LE (ligand efficiency, DF2) = 0.50 kcal/(mol HAC)

Entry CC=CC=C1C(=O)NC(=O)NC1=O [Compound 11] ; LE (ligand efficiency, DF2) = 0.48 kcal/(mol HAC)

Entry COc1ccc(NC=C2C(=O)NC(=O)NC2=O)cc1 [Compound 12] ; LE (ligand efficiency, DF2) = 0.32 kcal/(mol HAC)

----------
TEST_SYSTEM: GST-YTHDF2 (Homo sapiens, UniProt Q9Y5A9)
Construct: made in house
PROCEDURE_SUMMARY: HTRF-based binding assay, competition with m6A-oligoRNA, DF2
STATED_CONDITIONS: HTRF, 100 µM compound
Decision: % at 100 µM beneath 40% gives Y; % at 100 µM meeting or exceeding 40% gives N.

| MOLECULE | CLASS_ASSIGNMENT |
| --- | --- |
| O=c1[nH]c(=S)[nH]c2[nH]ccc12 [Compound S63] | N |
| O=c1[nH]c(=S)[nH]c2scc(-c3cccs3)c12 [Compound S70] | N |
| COc1cccc2c1OCc1sc3[nH]c(=S)[nH]c(=O)c3c1-2 [Compound S73] | Y |
| O=c1[nH]c(=S)[nH]c2ccsc12 [Compound S64] | Y |

Could you now look at the following molecule, please?
Input Nn1c(=S)[nH]c2scc(-c3ccccc3)c2c1=O [Compound S68] ; condition: % at 100 µM strictly below 40%. Does it hold?
Y

----------
Overview of reported Residual signal at 1 mM concentration across a group of compounds:
TEST_SYSTEM: GST-YTHDF2 (Homo sapiens, UniProt Q9Y5A9)
Construct: made in house
PROCEDURE_SUMMARY: HTRF-based binding assay, competition with m6A-oligoRNA, DF2
STATED_CONDITIONS: HTRF, 1 mM compound, relative to control; average of two technical replicates; * = interference with the assay
Only the number, expressed in %, is required.

| INPUT_SMILES | RECORDED_METRIC | MEASUREMENT_UNIT | OBSERVED |
| --- | --- | --- | --- |
| O=C(Nc1nccs1)C(F)(F)F | Residual signal at 1 mM concentration | % | 87 |
| CNc1ncnc2[nH]nc(C)c12 | Residual signal at 1 mM concentration | % | 88 |
| Cc1nc(O)c(C=Nc2ccc(Cl)cc2)c(O)n1 | Residual signal at 1 mM concentration | % | 21 |
| Cc1cc(=O)c2sccc2[nH]1 | Residual signal at 1 mM concentration | % | 89 |

Entry `COc1ccc(C=C2C(=O)NC(=S)NC2=O)cc1C` ; Residual signal at 1 mM concentration = 48

Entry `O=c1[nH]c(=S)[nH]c2nc[nH]c12` ; Residual signal at 1 mM concentration = 2

Entry `O=C1NC(=S)NC(=O)C1=NNc1cccc(C(=O)O)c1` ; Residual signal at 1 mM concentration = 5

----------
TEST_SYSTEM: GST-YTHDF2 (Homo sapiens)
Construct: made in house
PROCEDURE_SUMMARY: HTRF-based binding assay, competition with m6A-oligoRNA, DF2
STATED_CONDITIONS: LE = -RT ln IC50/HAC from HTRF IC50
RECORDED_METRIC: LE (ligand efficiency, DF2)

Sample answers from the record:
| INPUT_SMILES | LE (ligand efficiency, DF2) |
| --- | --- |
| Cc1c(C(=O)NCCCC(=O)O)sc2[nH]c(=S)[nH]c(=O)c12 | 0.32 kcal/(mol HAC) |
| CNc1cc(=O)[nH]c(=O)[nH]1 | 0.49 kcal/(mol HAC) |
| O=c1[nH]c(=S)[nH]c2nc[nH]c12 | 0.56 kcal/(mol HAC) |

Entry `Cc1cccc(NC=C2C(=O)NC(=S)NC2=O)n1` ; LE (ligand efficiency, DF2) = 0.34 kcal/(mol HAC)

Entry `Cc1c(C(=O)NCc2cccc(C(=O)O)c2)sc2[nH]c(=S)[nH]c(=O)c12` ; LE (ligand efficiency, DF2) = 0.26 kcal/(mol HAC)

----------
TEST_SYSTEM: GST-YTHDF2 (Homo sapiens)
Construct: made in house
PROCEDURE_SUMMARY: HTRF-based binding assay, competition with m6A-oligoRNA, DF2
STATED_CONDITIONS: dose-response, competitor m6A-oligoRNA; read-out: DF2 IC50 (HTRF assay)
Overview of reported IC50 across a group of molecules:
Only the number, expressed in µM, is required.

Sample answers from the record:
| MOLECULE | RECORDED_METRIC | MEASUREMENT_UNIT | OBSERVED |
| --- | --- | --- | --- |
| CC(=O)c1sc2[nH]c(=S)[nH]c(=O)c2c1C | IC50 | µM | 13 |
| Cc1cc2c(=O)[nH]c(=S)[nH]c2s1 | IC50 | µM | 38 |
| O=C(O)c1ccc(-c2csc3[nH]c(=S)[nH]c(=O)c23)cc1 | IC50 | µM | 5.4 |
| CCN1CCc2c(sc3[nH]c(=S)n(N)c(=O)c23)C1 | IC50 | µM | 23 |
| COC(=O)c1ccc(-c2csc3[nH]c(=S)[nH]c(=O)c23)cc1 | IC50 | µM | 4.7 |

Entry `COc1ccc(-c2cc3c(=O)[nH]c(=S)[nH]c3s2)cc1` ; IC50 = 22

Entry `COc1ccc(-c2csc3[nH]c(=S)[nH]c(=O)c23)cc1` ; IC50 = 24

Entry `CNC=C1C(=O)NC(=S)NC1=O` ; IC50 = 91

----------
Overview of reported Single-dose residual signal at 100 µM, DF2 across a group of compounds:
TEST_SYSTEM: GST-YTHDF2 (Homo sapiens, UniProt Q9Y5A9)
Construct: made in house
PROCEDURE_SUMMARY: HTRF-based binding assay, competition with m6A-oligoRNA, DF2
STATED_CONDITIONS: HTRF, 100 µM compound, normalized
Only the number, expressed in %, is required.

| INPUT_SMILES | TEST_SYSTEM | OBSERVED |
| --- | --- | --- |
| Cc1c(C(=O)NCc2cccnc2)sc2[nH]c(=S)[nH]c(=O)c12 | GST-YTHDF2 (Homo sapiens, UniProt Q9Y5A9) | 9 |

`CCOC(=O)c1sc2[nH]c(=S)[nH]c(=O)c2c1C` on GST-YTHDF2 (Homo sapiens, UniProt Q9Y5A9) gives Single-dose residual signal at 100 µM, DF2 = 5

`Cc1cc2c(=O)[nH]c(=S)[nH]c2s1` on GST-YTHDF2 (Homo sapiens, UniProt Q9Y5A9) gives Single-dose residual signal at 100 µM, DF2 = 8

`Cc1c(-c2ccc([N+](=O)[O-])cc2)sc2[nH]c(=S)[nH]c(=O)c12` on GST-YTHDF2 (Homo sapiens, UniProt Q9Y5A9) gives Single-dose residual signal at 100 µM, DF2 = 7

`O=c1[nH]c(=S)[nH]c2sccc12` on GST-YTHDF2 (Homo sapiens, UniProt Q9Y5A9) gives Single-dose residual signal at 100 µM, DF2 = 8

`O=c1[nH]c(=S)[nH]c2scc(-c3ccc(Br)cc3)c12` on GST-YTHDF2 (Homo sapiens, UniProt Q9Y5A9) gives Single-dose residual signal at 100 µM, DF2 = 4

`O=c1[nH]c(=S)[nH]c2scc(-c3ccc(O)cc3)c12` on GST-YTHDF2 (Homo sapiens, UniProt Q9Y5A9) gives Single-dose residual signal at 100 µM, DF2 = 5
